Assay: oral pharmacokinetics in BALB/c mice
Assay type: in vivo
Settings: male, BALB/c, mouse, plasma, po, 50 mg/kg, AUC0–t
Observed property: AUC(0-t) (ng·h/mL)
Your answer should be a plain number; it is taken to be in ng·h/mL.

Ask | Read the entry CN1CC[C@H](c2c(O)cc(O)c3c(=O)cc(/C=C/c4c(Cl)cccc4Cl)oc23)[C@H](O)C1 [IIIM-290] and write its reported AUC(0-t).
Reply | 2570

---

Experiment: oral pharmacokinetics in BALB/c mice
Assay type: in vivo
Conditions: male, BALB/c, mouse, plasma, po, 50 mg/kg, Cmax
Observed property: Cmax (ng/mL)
Answer in ng/mL, number only, no unit symbol.

Ask | Indicate its recorded Cmax; the compound in question is CN1CC[C@H](c2c(O)cc(O)c3c(=O)cc(/C=C/c4c(Cl)cccc4Cl)oc23)[C@H](O)C1
Reply | 656
